Origin of values: patent US20210045385A1

Tested on: kochia (Kochia scoparia)
Experiment: Test A preemergence, visual plant response rating
Format: in vivo
Conditions: 125 g ai/ha, preemergence; 0 to 100 scale, 0 no effect, 100 complete control
Catalogue of Kochia plant response rating values
readout_label: Kochia plant response rating

CON=C(c1sccc1C)c1c(O)c(C)nn(C)c1=O: 10
CO/N=C(\c1ccc(C)o1)c1c(O)c(C)nn(C)c1=O: 0
Cc1nn(C)c(=O)c(C(=NOCC=CCl)c2ccc(F)c3ccccc23)c1O: 0
CO/N=C(/c1ccccc1Cl)c1c(O)c(C)nn(C)c1=O: 0
CON=C(c1c(O)c(C)nn(C)c1=O)c1csc2ccccc12 (single isomer, unassigned): 0
CO/N=C(\c1csc(C)c1)c1c(O)c(C)nn(C)c1=O: 0
CON=C(c1ccccc1C1CC1)c1c(O)c(C)nn(C)c1=O [Compound 105]: 10
CCO/N=C(/c1c(O)c(C)nn(C)c1=O)c1cc(Br)cc2ccccc12: 30
CO/N=C(\c1ccc(F)cc1C)c1c(O)c(C)nn(C)c1=O: 0

====

Ryegrass, Italian plant response rating values, listed per item
Test system: Italian ryegrass (Lolium multiflorum)
Assay: Test A postemergence, visual plant response rating
Type: in vivo
Conditions: Postemergence, 125 g ai/ha; 0 to 100 scale (0 no effect, 100 complete control)
readout_label: Ryegrass, Italian plant response rating

CO/N=C(\c1cscc1C)c1c(O)c(C)nn(C)c1=O: 10
CON=C(c1c(O)c(C)nn(C)c1=O)c1cccc2ccc(Cl)cc12: 70
CON=C(c1cc(C(F)(F)F)ccc1Cl)c1c(O)c(C)nn(C)c1=O: 40
CCO/N=C(/c1c(O)c(C)nn(C)c1=O)c1cccc2ccccc12: 30

====

Test system: kochia (Bassia scoparia)
Experiment: Test C postemergence, visual plant response rating
Format: in vivo
Settings: Postemergence, 31 g ai/ha
Classification field: enter rule met for Kochia plant response rating (0 to 100 scale) values not below 20, rule not met for values below it.

CO/N=C(/c1cccc(/C=C/Cl)c1)c1c(O)c(C)nn(C)c1=O: rule not met
CCO/N=C(/c1c(O)c(Cl)nn(C)c1=O)c1cc(Br)cc2ccccc12: rule met
Cc1nn(C)c(=O)c(/C(=N\OC(C)C)c2cccc3cc(Cl)ccc23)c1O: rule not met
CON=C(c1cc(F)cc(F)c1F)c1c(O)c(C)nn(C)c1=O: rule met
C#CCO/N=C(\c1ccc(F)c(Cl)c1)c1c(O)c(C)nn(C)c1=O: rule not met
CO/N=C(\c1cccc(/C=C/Cl)c1)c1c(O)c(C)nn(C)c1=O: rule not met
CO/N=C(/c1cc(F)cc(F)c1C)c1c(O)c(C)nn(C)c1=O: rule met

====

System: barnyardgrass (Echinochloa crus-galli)
Test: Test C postemergence, visual plant response rating
Assay type: in vivo
Conditions: Test C, postemergence, 125 g ai/ha
readout_label: Barnyardgrass plant response rating (0 to 100 scale)

CO/N=C(/c1cc(F)cc(F)c1C)c1c(O)c(C)nn(C)c1=O: 30
Cc1nn(C)c(=O)c(/C(=N/OC(C)C)c2cccc3cc(Cl)ccc23)c1O: 50
C#CCON=C(c1c(O)c(OC)nn(C)c1=O)c1cccc2ccccc12 (mixture of isomers): 40
C#CCO/N=C(\c1cccc(/C=C/Cl)c1)c1c(O)c(C)nn(C)c1=O: 50
CON=C(c1cc(Cl)cc(Cl)c1Cl)c1c(O)c(C)nn(C)c1=O: 80
CCOc1cccc(C(=NOC)c2c(O)c(C)nn(C)c2=O)c1: 30
CO/N=C(\c1cccc(Br)c1)c1c(O)c(C)nn(C)c1=O: 30
CO/N=C(/c1ccc(F)c(Cl)c1)c1c(O)c(C)nn(C)c1=O: 10
CO/N=C(\c1cccc(/C=C\Cl)c1)c1c(O)c(C)nn(C)c1=O: 100
CO/N=C(/c1cccc(/C=C/Cl)c1)c1c(O)c(C)nn(C)c1=O: 30
C#CCO/N=C(/c1cccc(/C=C/Cl)c1)c1c(O)c(C)nn(C)c1=O: 40
CC(C)O/N=C(/c1c(O)cnn(C)c1=O)c1ccc(F)c2ccccc12: 0
CON=C(c1cccc(OCC(F)(F)F)c1)c1c(O)c(C)nn(C)c1=O: 80
CON=C(c1cccc(OC(F)F)c1)c1c(O)c(C)nn(C)c1=O: 10
CO/N=C(/c1cccc(/C=C\Cl)c1)c1c(O)c(C)nn(C)c1=O: 60
C#CCO/N=C(/c1ccc(F)c(Cl)c1)c1c(O)c(C)nn(C)c1=O: 30
C#CCO/N=C(/c1cccc(/C=C\Cl)c1)c1c(O)c(C)nn(C)c1=O: 40
CO/N=C(\c1c(O)c(Cl)nn(C)c1=O)c1ccc(F)c2ccccc12: 60
